Test system: A375-XP cells (Vemurafenib-resistant)
Assay: Kinase inhibitor library screening, PrestoBlue cell viability, 1 or 10 μM, 72 h
Details: A375 XP; 10μΜ; 72 h
Procedure: After 72 h of treatment, cell viability was assessed using the PrestoBlue Cell Viability Reagent (ThermoFisher Scientific). Measurements were performed with the CLARIOstar Monochromator microplate reader (BMG Labtech). Kinase inhibitor library screening. […] Drugs were added at 2 different concentrations, 1 and 10 μM, for 72 h and cell viability was assessed using the PrestoBlue Cell Viability assay. […] Each cell line was analyzed at least in duplicate. […]
Kindly note that classification relies on cell viability (kinase inhibitor library screening) with these boundaries: low value: < 20%; medium value: ≥ 20% and < 70%; high value: ≥ 70%

{"molecule": "CCN1CCN(C(=O)Cc2ccc(Nc3ncc(F)c(Nc4ccc(C(=O)Nc5ccccc5Cl)cc4)n3)cc2)CC1", "category": "medium value"}
{"molecule": "O=C(NC1CCNCC1)c1[nH]ncc1NC(=O)c1c(Cl)cccc1Cl [AT7519, reference compound]", "category": "low value"}
{"molecule": "CNC(=O)c1cc(Oc2ccc(NC(=O)Nc3cc(C(C)(C)C)nn3-c3ccc4ncccc4c3)c(F)c2)ccn1 [DCC-2036 (Rebastinib)]", "category": "low value"}
{"molecule": "Cc1[nH]nc2ccc(-c3cncc(OC[C@@H](N)Cc4ccccc4)c3)cc12", "category": "low value"}
{"molecule": "CN(C)c1ccc(-c2nc3ncc(Cl)c(N4CCN(CC(=O)Nc5nccs5)CC4)c3[nH]2)cc1", "category": "medium value"}
{"molecule": "Cc1cnc(NC(=O)Nc2cc(Br)c(C)cc2OC[C@@H]2CNCCO2)cn1", "category": "low value"}
{"molecule": "COc1cc2c(Nc3ccc(NC(=O)c4ccccc4)cc3)ncnc2cc1OCCCN1CCOCC1", "category": "medium value"}
{"molecule": "CCS(=O)(=O)c1cccc(-c2cc(C(=O)NC3CCN(C)CC3)c(C)c3[nH]c4ncc(C)cc4c23)c1 [TAK-901, reference compound]", "category": "low value"}
{"molecule": "Cc1[nH]c(/C=C2\\C(=O)Nc3ccc(S(=O)(=O)N(C)c4cccc(Cl)c4)cc32)c(C)c1C(=O)N1CCN(C)CC1", "category": "medium value"}
{"molecule": "Cc1ncc(-c2ccnc(Nc3ccc(S(C)(=O)=O)cc3)n2)n1C(C)C", "category": "high value"}
{"molecule": "CN1CCN(C2CCN(C(=O)Nc3cc(Oc4ccc(NC(=O)C5(C(=O)Nc6ccc(F)cc6)CC5)c(F)c4)ccn3)CC2)CC1 [Golvatinib (E7050)]", "category": "medium value"}
{"molecule": "C[C@@H]1CN(CC(=O)Nc2ccc3c(c2)Cc2cccc(-c4cc(=O)cc(N5CCOCC5)o4)c2S3)C[C@H](C)O1", "category": "high value"}
{"molecule": "O=C(Nc1c[nH]nc1-c1nc2ccc(CN3CCOCC3)cc2[nH]1)NC1CC1", "category": "low value"}
{"molecule": "Cn1cc(-c2ccc3ncc(Cc4ccc5ncccc5c4)n3n2)cn1", "category": "high value"}
{"molecule": "Nc1nc(Nc2ccc(S(N)(=O)=O)cc2)nn1C(=O)c1c(F)cccc1F", "category": "low value"}
{"molecule": "COc1cc(N2CCC(N3CCN(C)CC3)CC2)ccc1Nc1ncc(Cl)c(Nc2ccccc2S(=O)(=O)C(C)C)n1", "category": "low value"}
{"molecule": "O=C(Nc1cccc(Cl)c1)Nc1ncc(CCNc2ncnc3ccsc23)s1", "category": "medium value"}
{"molecule": "CO[C@@H](C(=O)N1Cc2n[nH]c(NC(=O)c3ccc(N4CCN(C)CC4)cc3)c2C1)c1ccccc1", "category": "medium value"}
{"molecule": "S=C(NCc1ccc2c(c1)OCO2)N1CCN(c2ncnc3c2oc2ccccc23)CC1", "category": "high value"}
{"molecule": "COCCNCc1ccc(-c2cc3nccc(Oc4ccc(NC(=S)NC(=O)Cc5ccc(F)cc5)cc4F)c3s2)nc1", "category": "high value"}
{"molecule": "O=c1cc(-c2cccc3c2Sc2ccccc2S3)oc(N2CCOCC2)c1", "category": "high value"}
{"molecule": "Nc1nccc(Oc2ccc(NC(=O)c3c[nH]cc(-c4ccc(F)cc4)c3=O)cc2F)c1Cl", "category": "high value"}
{"molecule": "Cc1nc(N)sc1-c1ccnc(Nc2ccc(N3CCOCC3)cc2)n1", "category": "medium value"}
{"molecule": "CN(C[C@@H]1COCCO1)S(=O)(=O)Nc1ccc2ccc3ncc(-c4cnn(C)c4)cc3c(=O)c2c1", "category": "high value"}
{"molecule": "CC(C)(C)c1cnc(CSc2cnc(NC(=O)C3CCNCC3)s2)o1", "category": "low value"}
{"molecule": "O=C(O)c1ccc(Nc2ncc3c(n2)-c2ccc(Cl)cc2C(c2c(F)cccc2F)=NC3)cc1", "category": "medium value"}
{"molecule": "CCCCCCCCCCCCc1ccc(S(=O)(=O)Nc2nncs2)cc1", "category": "high value"}
{"molecule": "CCOc1ccn(-c2ccc(F)cc2)c(=O)c1C(=O)Nc1ccc(Oc2ccnc(N)c2Cl)c(F)c1", "category": "medium value"}
{"molecule": "CCS(=O)(=O)Nc1ccc2c(c1)/C(=C(/Nc1ccc(CN3CCCCC3)cc1)c1ccccc1)C(=O)N2 [Hesperadin, reference compound]", "category": "low value"}
